Data origin: patent US20160046618A1

Target: human recombinant BACE1 (Homo sapiens (Human), UniProt P56817)
Sequence (P56817 46-501): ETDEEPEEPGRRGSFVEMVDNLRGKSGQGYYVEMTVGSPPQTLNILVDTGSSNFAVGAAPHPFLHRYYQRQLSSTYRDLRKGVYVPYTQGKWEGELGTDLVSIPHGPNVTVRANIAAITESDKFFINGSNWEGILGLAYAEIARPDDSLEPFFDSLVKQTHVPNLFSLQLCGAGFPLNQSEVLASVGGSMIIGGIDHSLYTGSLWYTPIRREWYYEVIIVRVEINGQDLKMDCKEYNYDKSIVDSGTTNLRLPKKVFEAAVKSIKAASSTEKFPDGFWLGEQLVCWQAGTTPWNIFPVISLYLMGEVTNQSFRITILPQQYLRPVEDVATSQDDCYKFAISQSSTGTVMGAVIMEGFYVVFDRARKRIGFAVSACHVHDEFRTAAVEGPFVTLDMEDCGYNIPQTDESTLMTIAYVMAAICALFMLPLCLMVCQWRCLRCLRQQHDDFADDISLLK
Assay: In vitro enzymatic BACE1 FRET assay
Type: biochemical
Conditions: BACE1 FRET enzyme assay; read-out: IC50 IP (μM) BACE1 enzyme
# note: exactly 0.005 µM is not below, so it is no (0); use yes (1) for IC50 strictly under it

Examples with answers:
Compound | Label
Cc1cc(C#N)cnc1C(=O)Nc1cc(F)c(F)c([C@@]2(C)N=C(N)S[C@H]3C[C@H]32)c1 [Example 19] | no (0)
N#Cc1cnc2c(Nc3cc(F)c(F)c([C@@]4(CF)N=C(N)S[C@@]5(CO)C[C@H]54)c3)nccc2c1 [Example 48] | yes (1)
NC1=N[C@](CF)(c2cc(Nc3nccc4nc(OCc5ncco5)cnc34)ccc2F)C2C[C@@H]2S1 (stereo in doubt) [Example 56] | no (0)
COc1cnc2c(Nc3cc(F)c(F)c([C@@]4(C)N=C(N)S[C@@]5(CO)C[C@H]54)c3)ncc(F)c2c1 [Example 91] | no (0)
Cc1cc(Cl)cnc1C(=O)Nc1cc(F)c(F)c([C@@]2(CF)N=C(N)S[C@H]3C[C@H]32)c1 [Example 78] | yes (1)

Does the reported IC50 of C[C@]1(c2cc(Nc3nccc4cc(C#N)cnc34)cc(F)c2F)N=C(N)S[C@@]2(CF)C[C@H]21 [Example 60] stay below 0.005 µM?
yes (1)

Dear reviewer, please state whether COc1cnc2c(Nc3cc(F)c(F)c([C@@]4(C)N=C(N)S[C@@]5(CO)C[C@H]54)c3)nccc2c1 [Example 89] has IC50 strictly beneath 0.005 µM.
no (0)

Just wondering, is IC50 of COc1cnc(C(=O)Nc2ccc(F)c([C@@]3(CF)N=C(N)S[C@@]4(CO)C[C@H]43)c2)c(C)n1 [Example 75] below 0.005 µM?
no (0)

Below 0.005 µM on IC50? Entry N#Cc1ccc(C(=O)Nc2ccc(F)c([C@@]3(CF)N=C(N)S[C@H]4C[C@H]43)c2)nc1 [Example 2]
no (0)

Strictly below 0.005 µM: is that where IC50 of C[C@]1(c2cc(Nc3ncnc4cc(Cl)cnc34)cc(F)c2F)N=C(N)S[C@H]2C[C@H]21 [Example 34] sits?
no (0)

Bench note: check whether CC#CCOc1cnc(C(=O)Nc2cc(F)c(F)c([C@@]3(C)N=C(N)S[C@@]4(CO)C[C@H]43)c2)c(C)c1 [Example 85] shows IC50 below 0.005 µM
yes (1)

Is the reported IC50 for C[C@]1(c2cc(Nc3ncnc4cc(C#N)cnc34)cc(F)c2F)N=C(N)S[C@@]2(C(F)F)C[C@@H]12 [Example 95] strictly below 0.005 µM?
yes (1)

Is IC50 strictly under 0.005 µM for the entry Cc1cc(C#N)cnc1C(=O)Nc1cc(F)c(F)c([C@@]2(CF)N=C(N)S[C@H]3C[C@H]32)c1 [Example 13] ?
no (0)
